Target chain: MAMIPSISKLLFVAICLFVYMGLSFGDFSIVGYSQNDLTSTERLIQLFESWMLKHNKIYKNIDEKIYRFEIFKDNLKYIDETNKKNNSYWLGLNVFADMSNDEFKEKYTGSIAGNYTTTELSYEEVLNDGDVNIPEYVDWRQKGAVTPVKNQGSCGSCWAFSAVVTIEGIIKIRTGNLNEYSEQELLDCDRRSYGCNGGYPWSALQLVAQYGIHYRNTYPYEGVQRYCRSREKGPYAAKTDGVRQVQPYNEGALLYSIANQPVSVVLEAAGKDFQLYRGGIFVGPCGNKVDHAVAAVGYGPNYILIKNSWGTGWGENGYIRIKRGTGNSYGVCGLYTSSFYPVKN
pKi: −log10 of the molar value.
Given measured pKi, output Criterion met if it is greater than or equal to 7 and Criterion not met if not.

Worked examples follow.
- compound: "CN(C(=O)[C@H](Cc1ccccc1)NC(=O)OCc1ccccc1)N(C#N)CCc1ccccc1"
  class.assignment: "Criterion met"
- compound: "CC(C)C[C@H](NC(=O)OCc1ccccc1)C(=O)N(C)N(C)C#N"
  class.assignment: "Criterion met"
- compound: "CN(C#N)N(C)C(=O)[C@H](Cc1ccccc1)NC(=O)OCc1ccccc1"
  class.assignment: "Criterion met"

Exercise: I'd appreciate it if you could say whether CCCCCN(C#N)N(C)C(=O)[C@H](Cc1ccccc1)NC(=O)OCc1ccccc1 has pKi at least equal to 7.
Solution: Criterion met

Exercise: I'd appreciate it if you could say whether C[C@@H](C#N)NC(=O)[C@H](Cc1ccccc1)NC(=O)OCc1ccccc1 has pKi at least equal to 7.
Solution: Criterion not met

Exercise: I'd appreciate it if you could say whether CN(C(=O)[C@H](Cc1ccccc1)NC(=O)OCc1ccccc1)N(C#N)Cc1ccccc1 has pKi at least equal to 7.
Solution: Criterion met

====

# Test system: Plasmodium falciparum
# test: Antimalarial activity against Plasmodium falciparum 3D7 infected in erythrocytes assessed as inhibition of [3H]hypoxanthine incorporation by microbeta liquid scintillation counter
# Type: functional, organism-based
pIC50: −log10 of the molar value.
Given measured pIC50, output T if it is greater than or equal to 5 and F if not.

Worked examples follow.
- compound: "CC(C)C[C@H](NC(=O)OCc1ccccc1)C(=O)N(C)N(C)C#N"
  class.assignment: "F"
- compound: "CN(C(=O)[C@H](Cc1ccccc1)NC(=O)OCc1ccccc1)N(C#N)CCc1ccccc1"
  class.assignment: "T"
- compound: "CCCCCN(C#N)N(C)C(=O)[C@H](Cc1ccccc1)NC(=O)OCc1ccccc1"
  class.assignment: "T"

Exercise: I'd appreciate it if you could say whether C[C@@H](C#N)N(C)C(=O)[C@H](Cc1ccccc1)NC(=O)OCc1ccccc1 has pIC50 at least equal to 5.
Solution: F

Exercise: I'd appreciate it if you could say whether C[C@@H](C#N)NC(=O)[C@H](Cc1ccccc1)NC(=O)OCc1ccccc1 has pIC50 at least equal to 5.
Solution: F

Exercise: I'd appreciate it if you could say whether CN(C(=O)[C@H](Cc1ccccc1)NC(=O)OCc1ccccc1)N(C#N)Cc1ccccc1 has pIC50 at least equal to 5.
Solution: T
